- Test system: human lung tumor cell line A549
- Format: cell-based
- CONDITION DETAILS: CCK-8, 96 h treatment, 0.39-50 μM, OD 450 nm; read-out: IC50 (μM) A549
Bridge positions count the residues as written; N and C are the ends. Square brackets hold non-standard residues; d marks the D form. Peptide text beside a SMILES is read from it. R8 = C=CCCCCCC[C@@](C)(N)C(=O)O; S5 = C=CCCC[C@](C)(N)C(=O)O
Overview of recorded IC50 for various compounds
READOUT: IC50 (µM)

{"columns": ["COMPOUND", "MEASURED"],
 "data": [
  ["CC[C@H](C)[C@H](NC(=O)[C@@H](NC(=O)[C@H](C)NC(=O)[C@H](Cc1ccccc1)NC(=O)[C@H](CC(C)C)NC(=O)CNC(C)=O)C(C)C)C(=O)N[C@@H](CCCCN)C(=O)N[C@@H](CCCCN)C(=O)N[C@H](C(=O)N[C@@H](C)C(=O)N[C@@]1(C)CCCC=CCCC[C@@](C)(C(=O)N[C@@H](CC(C)C)C(N)=O)NC(=O)[C@H](CCCCN)NC(=O)[C@H]([C@@H](C)CC)NC(=O)[C@H](C(C)C)NC1=O)C(C)C [A4K14-citropin1.1-5] (Ac-GLFAVIKKVA[S5]VIK[S5]L-NH2; staple 11-15)", 9.9],
  ["CC[C@H](C)[C@@H]1NC(=O)[C@H](C(C)C)NC(=O)[C@H](C)NC(=O)[C@H](Cc2ccccc2)NC(=O)[C@](C)(NC(=O)CNC(C)=O)CCCCCCC=CCCC[C@@](C)(C(=O)N[C@@H](C)C(=O)N[C@@H](CO)C(=O)N[C@H](C(=O)N[C@H](C(=O)N[C@@H](CCCCN)C(=O)NCC(=O)N[C@@H](CC(C)C)C(N)=O)[C@@H](C)CC)C(C)C)NC(=O)[C@H](CCCCN)NC(=O)[C@H](CCCCN)NC1=O [A4K14-citropin1.1-6] (Ac-G[R8]FAVIKK[S5]ASVIKGL-NH2; staple 2-9)", 30.2]
]}

###

Overview of recorded ring closure, overall yield for various compounds
- ASSAY EXPLANATION: on-resin all-hydrocarbon stapling by ring-closing metathesis of S5/S5 (i,i+4) or R8/S5 (i,i+7), Grubbs first-generation catalyst (0.45 mmol per 0.15 mmol resin, 3 equiv), then TFA/TIPS/phenol/H2O cleavage and RP-HPLC
- CONDITION DETAILS: the molecule shown is the open-chain precursor, 21-membered ring, 1,2-dichloroethane, 25.0 °C, 4.0 h, 36 steps

{"columns": ["RECORD SMILES", "ring closure, overall yield / % yield"],
 "data": [
  ["C=CCCC[C@](C)(NC(=O)[C@H](C)NC(=O)[C@@H](NC(=O)[C@H](CCCCNC(=O)OC(C)(C)C)NC(=O)[C@H](CCCCNC(=O)OC(C)(C)C)NC(=O)[C@@H](NC(=O)[C@@H](NC(=O)[C@H](C)NC(=O)[C@H](Cc1ccccc1)NC(=O)[C@H](CC(C)C)NC(=O)CNC(C)=O)C(C)C)[C@@H](C)CC)C(C)C)C(=O)N[C@H](C(=O)N[C@H](C(=O)N[C@@H](CCCCNC(=O)OC(C)(C)C)C(=O)N[C@@](C)(CCCC=C)C(=O)N[C@@H](CC(C)C)C(N)=O)[C@@H](C)CC)C(C)C", 62],
  ["C=CCCC[C@](C)(NC(=O)[C@@H](NC(=O)[C@H](C)NC(=O)[C@H](Cc1ccccc1)NC(=O)[C@H](CC(C)C)NC(=O)CNC(C)=O)C(C)C)C(=O)N[C@@H](CCCCNC(=O)OC(C)(C)C)C(=O)N[C@@H](CCCCNC(=O)OC(C)(C)C)C(=O)N[C@H](C(=O)N[C@@](C)(CCCC=C)C(=O)N[C@@H](COC(C)(C)C)C(=O)N[C@H](C(=O)N[C@H](C(=O)N[C@@H](CCCCNC(=O)OC(C)(C)C)C(=O)NCC(=O)N[C@@H](CC(C)C)C(N)=O)[C@@H](C)CC)C(C)C)C(C)C", 71],
  ["C=CCCC[C@](C)(NC(=O)[C@H](C)NC(=O)[C@H](Cc1ccccc1)NC(=O)[C@H](CC(C)C)NC(=O)CNC(C)=O)C(=O)N[C@H](C(=O)N[C@@H](CCCCNC(=O)OC(C)(C)C)C(=O)N[C@@H](CCCCNC(=O)OC(C)(C)C)C(=O)N[C@@](C)(CCCC=C)C(=O)N[C@@H](C)C(=O)N[C@@H](COC(C)(C)C)C(=O)N[C@H](C(=O)N[C@H](C(=O)N[C@@H](CCCCNC(=O)OC(C)(C)C)C(=O)NCC(=O)N[C@@H](CC(C)C)C(N)=O)[C@@H](C)CC)C(C)C)[C@@H](C)CC", 62],
  ["C=CCCC[C@](C)(NC(=O)CNC(C)=O)C(=O)N[C@@H](Cc1ccccc1)C(=O)N[C@@H](C)C(=O)N[C@H](C(=O)N[C@@](C)(CCCC=C)C(=O)N[C@@H](CCCCNC(=O)OC(C)(C)C)C(=O)N[C@@H](CCCCNC(=O)OC(C)(C)C)C(=O)N[C@H](C(=O)N[C@@H](C)C(=O)N[C@@H](COC(C)(C)C)C(=O)N[C@H](C(=O)N[C@H](C(=O)N[C@@H](CCCCNC(=O)OC(C)(C)C)C(=O)NCC(=O)N[C@@H](CC(C)C)C(N)=O)[C@@H](C)CC)C(C)C)C(C)C)C(C)C", 63],
  ["C=CCCC[C@](C)(NC(=O)[C@H](CCCCNC(=O)OC(C)(C)C)NC(=O)[C@H](CCCCNC(=O)OC(C)(C)C)NC(=O)[C@@H](NC(=O)[C@@H](NC(=O)[C@H](C)NC(=O)[C@H](Cc1ccccc1)NC(=O)[C@H](CC(C)C)NC(=O)CNC(C)=O)C(C)C)[C@@H](C)CC)C(=O)N[C@@H](C)C(=O)N[C@@H](COC(C)(C)C)C(=O)N[C@H](C(=O)N[C@@](C)(CCCC=C)C(=O)N[C@@H](CCCCNC(=O)OC(C)(C)C)C(=O)NCC(=O)N[C@@H](CC(C)C)C(N)=O)C(C)C", 66]
]}
